Where do the numbers come from? From patent US11384079B2.

- Assayed system: C5aR (Homo sapiens)
- Construct: U937 cells are a monocytic cell line which express C5aR
- Sequence (P21730 1-350): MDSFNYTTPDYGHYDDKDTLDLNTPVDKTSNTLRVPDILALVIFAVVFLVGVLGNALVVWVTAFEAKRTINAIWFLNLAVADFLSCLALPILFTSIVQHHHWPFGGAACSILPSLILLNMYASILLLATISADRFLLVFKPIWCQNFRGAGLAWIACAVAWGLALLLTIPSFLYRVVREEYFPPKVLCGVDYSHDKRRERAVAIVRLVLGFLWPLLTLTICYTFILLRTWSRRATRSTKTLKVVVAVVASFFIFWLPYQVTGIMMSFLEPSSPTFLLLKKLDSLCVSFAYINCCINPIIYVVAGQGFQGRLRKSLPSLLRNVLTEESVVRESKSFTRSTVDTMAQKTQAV
- Assay remarks: chemotaxis assay (C5aR mediated migration)
- Experimental context: migration of U937 or neutrophil cells toward C5a (0.03 nM), 1.5 hours at 37° C., read-out: Mig IC50
# IC50 per entry
Experimental readout: IC50

{"Molecular string": "CCc1cccc(CC)c1-n1nc2c(c1-c1ccc3[nH]ccc3c1)CN(Cc1cc(Cl)ccc1C(F)(F)F)CC2", "Experimental readout": "IC50", "Reported value": "< 5 nM"}
{"Molecular string": "CCc1cccc(CC)c1-n1nc2c(c1-c1ccc(F)c3[nH]ccc13)CN(c1ncc(C3CC3)cc1Cl)CC2", "Experimental readout": "IC50", "Reported value": "< 5 nM"}
{"Molecular string": "CCc1cccc(CC)c1-n1nc2c(c1-c1cc3cc[nH]c3cn1)CN(c1ncc(C(F)(F)F)cn1)CC2", "Experimental readout": "IC50", "Reported value": "50 to 500 nM"}
{"Molecular string": "Cc1cccc(C)c1-n1nc2c(c1-c1ccc3[nH]ccc3c1)CN(Cc1ccccc1C(F)(F)F)CC2", "Experimental readout": "IC50", "Reported value": "5 to 50 nM"}
{"Molecular string": "CCc1cccc(CC)c1-n1nc2c(c1-c1cc(Cl)c(C)c3[nH]ccc13)CN(c1ncc(C(F)(F)F)cc1F)CC2", "Experimental readout": "IC50", "Reported value": "< 5 nM"}
{"Molecular string": "CCc1cccc(CC)c1-n1nc2c(c1-c1c(F)cc(OC)c3[nH]ccc13)CN(c1ncc(C(F)(F)F)cn1)CC2", "Experimental readout": "IC50", "Reported value": "< 5 nM"}
{"Molecular string": "CCc1cccc(CC)c1-n1nc2c(c1-c1c(F)cc(F)c3[nH]ccc13)CN(c1ncc(C(F)(F)F)cc1F)CC2", "Experimental readout": "IC50", "Reported value": "5 to 50 nM"}

* * *

- Assayed system: C5aR (Homo sapiens, UniProt P21730)
- Construct: U937 cells are a monocytic cell line which express C5aR
- Assay remarks: chemotaxis assay (C5aR mediated migration)
- Experimental context: migration of U937 or neutrophil cells toward C5a (0.03 nM), 1.5 hours at 37° C., read-out: Mig IC50
pIC50: −log10 of the molar value.

{"Molecular string": "Cc1cccc(C)c1-n1nc2c(c1-c1ccc(C)c3[nH]ccc13)CN(c1ncc(C(F)(F)F)cn1)CC2", "pIC50": "7.30 to 8.30"}
{"Molecular string": "Cc1cccc(OCC(C)C)c1-n1nc2c(c1-c1ccc3cc[nH]c3c1)CN(c1ncc(C(F)(F)F)cc1F)CC2", "pIC50": "6.30 to 7.30"}
{"Molecular string": "CCc1cccc(CC)c1-n1nc2c(c1-c1ccc(Cl)c3[nH]ccc13)CN(c1ccc(OC(F)(F)F)cn1)CC2", "pIC50": "> 8.30"}
{"Molecular string": "Cc1cccc(C)c1-n1nc2c(c1-c1cccc3[nH]ccc13)CN(c1ncc(Cl)cc1Cl)CC2", "pIC50": "7.30 to 8.30"}
{"Molecular string": "CCc1cccc(CC)c1-n1nc2c(c1-c1ccc3[nH]cnc3c1)CN(c1ncc(C(F)(F)F)cn1)CC2", "pIC50": "< 6.30"}

* * *

- Assayed system: C5aR (Homo sapiens, UniProt P21730)
- Construct: U937 cells are a monocytic cell line which express C5aR
- Assay remarks: chemotaxis assay (C5aR mediated migration)
- Experimental context: migration of U937 or neutrophil cells toward C5a (0.03 nM), 1.5 hours at 37° C., read-out: Mig IC50
Below is a list of entries, each paired with its recorded IC50 value.
Experimental readout: IC50

{"Molecular string": "CCc1cccc(CC)c1-n1nc2c(c1-c1c(F)cc(OC)c3[nH]ccc13)CN(c1ncc(C(F)(F)F)cc1F)CC2", "Experimental readout": "IC50", "Reported value": "< 5 nM"}
{"Molecular string": "CCc1cccc(CC)c1-n1nc2c(c1-c1c(F)cc(Cl)c3[nH]ccc13)CN(c1ncc(C(F)(F)F)cc1F)CC2", "Experimental readout": "IC50", "Reported value": "< 5 nM"}
{"Molecular string": "CCc1cccc(CC)c1-n1nc2c(c1-c1cc(F)c(Cl)c3[nH]ncc13)CN(c1ncc(C(F)(F)F)cn1)CC2", "Experimental readout": "IC50", "Reported value": "< 5 nM"}
{"Molecular string": "CCc1cccc(CC)c1-n1nc2c(c1-c1ccc(OC)c3[nH]ncc13)CN(c1ncc(C(F)(F)F)cc1F)CC2", "Experimental readout": "IC50", "Reported value": "5 to 50 nM"}
{"Molecular string": "CCc1cccc(CC)c1-n1nc2c(c1-c1ccc(F)c3[nH]ccc13)CN(c1ncc(C(F)(F)F)cc1Cl)CC2", "Experimental readout": "IC50", "Reported value": "5 to 50 nM"}
{"Molecular string": "CCC(CC)N1CCc2nn(-c3c(C)cccc3OCC(C)C)c(-c3ccc4[nH]ccc4c3)c2C1", "Experimental readout": "IC50", "Reported value": "5 to 50 nM"}
{"Molecular string": "Cc1cccc(OCC(C)C)c1-n1nc2c(c1-c1ccc3[nH]ccc3c1)CN(c1nc(Cl)ns1)CC2", "Experimental readout": "IC50", "Reported value": "5 to 50 nM"}

* * *

Attribute: IC50
- Assayed system: C5aR (Homo sapiens, UniProt P21730)
- Construct: U937 cells are a monocytic cell line which express C5aR
- Assay remarks: chemotaxis assay (C5aR mediated migration)
- Experimental context: migration of U937 or neutrophil cells toward C5a (0.03 nM), 1.5 hours at 37° C., read-out: Mig IC50

{"Molecular string": "CCc1cccc(CC)c1-n1nc2c(c1-c1ccc(Cl)c3[nH]ccc13)CN(c1ncc(C(C)(C)O)cn1)CC2", "IC50": "< 5 nM"}
{"Molecular string": "COc1cnc(N2CCc3nn(-c4c(C)cccc4C)c(-c4ccc(C)c5[nH]ccc45)c3C2)nc1", "IC50": "5 to 50 nM"}
{"Molecular string": "Cc1cccc(C)c1-n1nc2c(c1-c1ccc(C)c3[nH]ccc13)CN(c1ncc(C(C)C)cn1)CC2", "IC50": "5 to 50 nM"}
{"Molecular string": "CCc1cccc(CC)c1-n1nc2c(c1-c1ccc3[nH]ccc3c1)CN(c1ncc(C(F)(F)F)cc1F)CC2", "IC50": "5 to 50 nM"}
{"Molecular string": "CCc1cccc(CC)c1-n1nc2c(c1-c1cc(Cl)cc3[nH]cnc13)CN(c1ncc(C(F)(F)F)cn1)CC2", "IC50": "50 to 500 nM"}

* * *

- Assayed system: C5aR (Homo sapiens, UniProt P21730)
- Construct: U937 cells are a monocytic cell line which express C5aR
- Sequence (P21730 1-350): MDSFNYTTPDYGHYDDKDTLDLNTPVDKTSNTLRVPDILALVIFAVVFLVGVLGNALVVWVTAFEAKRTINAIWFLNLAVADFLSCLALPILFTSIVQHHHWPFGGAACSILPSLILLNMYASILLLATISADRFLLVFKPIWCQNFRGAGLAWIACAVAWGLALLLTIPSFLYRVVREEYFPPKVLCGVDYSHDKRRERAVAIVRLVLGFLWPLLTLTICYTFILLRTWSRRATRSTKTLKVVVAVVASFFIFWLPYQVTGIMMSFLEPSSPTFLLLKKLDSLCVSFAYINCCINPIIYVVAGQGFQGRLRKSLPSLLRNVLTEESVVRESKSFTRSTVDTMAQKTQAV
- Assay remarks: chemotaxis assay (C5aR mediated migration)
- Experimental context: migration of U937 or neutrophil cells toward C5a (0.03 nM), 1.5 hours at 37° C., read-out: Mig IC50
- Procedure: U937 cells are a monocytic cell line which express C5aR, and are available from ATCC (VA). […] Optionally, compounds may be further assayed for their ability to inhibit chemotaxis in cells. […] The chambers are incubated 1.5 hours at 37° C., and the number of cells in the lower chamber quantified either by direct cell counts in five high powered fields per well or by the CyQuant assay (Molecular Probes), a fluorescent dye method that measures nucleic acid content and microscopic observation.
pIC50: −log10 of the molar value.
Reported pIC50 by item:
Experimental readout: pIC50

{"Molecular string": "Cc1cccc(C)c1-n1nc2c(c1-c1ccc(C)c3[nH]ccc13)CN(c1ncc(C(F)(F)F)cc1F)CC2", "Experimental readout": "pIC50", "Reported value": "7.30 to 8.30"}
{"Molecular string": "CCc1cccc(CC)c1-n1nc2c(c1-c1ccc(C)c3[nH]ccc13)CN(c1ccc(C(C)C)cn1)CC2", "Experimental readout": "pIC50", "Reported value": "> 8.30"}
{"Molecular string": "COc1cnc(N2CCc3nn(-c4c(C)cccc4C)c(-c4c(F)cc(Cl)c5[nH]ccc45)c3C2)nc1", "Experimental readout": "pIC50", "Reported value": "7.30 to 8.30"}
{"Molecular string": "Cc1cccc(OCC(C)C)c1-n1nc2c(c1-c1ccc3[nH]cc(C)c3c1)CN(c1ncc(C(F)(F)F)cc1F)CC2", "Experimental readout": "pIC50", "Reported value": "6.30 to 7.30"}
{"Molecular string": "CCc1cccc(CC)c1-n1nc2c(c1-c1ccc3[nH]c(C)nc3c1Cl)CN(c1ncc(C(F)(F)F)cn1)CC2", "Experimental readout": "pIC50", "Reported value": "7.30 to 8.30"}
